Cited source: paper PMC10386709

# target.system: UniProt:P00330
# Sequence (P00330 2-348): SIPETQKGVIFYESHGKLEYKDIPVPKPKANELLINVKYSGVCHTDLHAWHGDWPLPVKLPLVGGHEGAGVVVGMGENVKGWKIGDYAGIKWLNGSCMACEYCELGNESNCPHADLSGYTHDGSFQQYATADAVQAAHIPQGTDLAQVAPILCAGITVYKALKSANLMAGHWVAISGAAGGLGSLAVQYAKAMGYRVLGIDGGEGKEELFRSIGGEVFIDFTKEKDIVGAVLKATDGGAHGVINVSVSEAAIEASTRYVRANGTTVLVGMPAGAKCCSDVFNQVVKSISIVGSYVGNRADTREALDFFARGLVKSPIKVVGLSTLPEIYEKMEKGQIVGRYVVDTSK
experimental.endpoint: IC50

Q: Param item = `CNC(=C[N+](=O)[O-])NCCSCc1ccc(CN(C)C)o1` ; retrieve measured IC50.
Ans: 390 µM
